H2A: K9UN, % of peptide pool reference
- System: histone modifications in 2102EP cells
- TEST_METHOD_NOTES: Mass spectrometry analysis of histone modifications (Mod Spec)
- Format: cell-based, Human
- MEASUREMENT_PARAMETERS: 2102EP cells; Mod Spec raw data
Please give the number followed by its unit.

Some molecules with known H2A: K9UN, % of peptide pool results, for comparison:
structure=O=C1C(=Cc2cccnc2)C(=O)c2ccccc21 readout_kind="H2A: K9UN, % of peptide pool" measured_result=98.0496%
structure=Cc1cc(=O)n(C)c2cc(N3C(=O)CC[C@H](NS(=O)(=O)CC(C)C)[C@H]3c3ccc(Cl)cc3)ccc12 readout_kind="H2A: K9UN, % of peptide pool" measured_result=98.6475%

// next item, H2A: K9UN, % of peptide pool requested
Ask | Need H2A: K9UN, % of peptide pool of Cc1ncsc1-c1ccc(CNC(=O)[C@@H]2C[C@@H](O)CN2C(=O)[C@@H](NC(=O)COCCOCCOCCNC(=O)C[C@@H]2N=C(c3ccc(Cl)cc3)c3c(sc(C)c3C)-n3c(C)nnc32)C(C)(C)C)cc1 , thanks.
Reply | 98.08%
